Can you tell me Fbg for the items I'm about to list?
species: Rattus norvegicus; assay: Open TG-GATES - Regimen: Single; assay type: toxicity, organism-based, Sprague-Dawley; set-up: regimen Single, gender Male, age 6 weeks; conditions: in vivo, po, 0 mg/kg, 9 h, tissue Blood, route gavage, dose level Control
Numbers only, in mg/dL.

Some molecules with recorded Fbg:
{"Molecule": "CC1=C(CC(=O)O)c2cc(F)ccc2/C1=C\\c1ccc([S+](C)[O-])cc1 (stereo not given)", "Property label": "Fbg", "Uom": "mg/dL", "Measured": 308.8}
{"Molecule": "CCC1(c2ccccc2)C(=O)NC(=O)NC1=O [PHENOBARBITAL]", "Property label": "Fbg", "Uom": "mg/dL", "Measured": 223.8}
{"Molecule": "ClC(Cl)(Cl)Cl [CARBON TETRACHLORIDE]", "Property label": "Fbg", "Uom": "mg/dL", "Measured": 222.4}

For each entry beneath this line, provide reported Fbg.
1. O=NN(CCCl)C(=O)NC1CCCCC1 [LOMUSTINE]
2. CN(C)CCC=C1c2ccccc2COc2ccccc21 [DOXEPIN]
3. OCCOCCN1CCN(C(c2ccccc2)c2ccc(Cl)cc2)CC1 (stereo not given) [HYDROXYZINE]
4. CCc1oc2ccccc2c1C(=O)c1cc(Br)c(O)c(Br)c1 [BENZBROMARONE]

213.2
271.8
260.4
234.8

For each entry beneath this line, provide reported Fbg.
1. CC(C)N(CCC(C(N)=O)(c1ccccc1)c1ccccn1)C(C)C (stereo not given) [DISOPYRAMIDE]
2. CN(C)C(=N)N=C(N)N [METFORMIN]
3. CC[C@H]1[C@@H]2C[C@H]3[C@@H]4N(C)c5ccccc5[C@]45C[C@@H]([C@@H]2[C@H]5O)N3[C@@H]1O [AJMALINE]

1: 300.8; 2: 244.8; 3: 199.4

###

Can you tell me PL for the items I'm about to list?
species: Rattus norvegicus; assay: Open TG-GATES - Regimen: Daily Repeat; format: toxicity, organism-based, Sprague-Dawley; set-up: regimen Daily Repeat, gender Male, age 6 weeks; settings: in vivo, po, 0 mg/kg, […], tissue Plasma, route gavage, dose level Control, time 28 day
Give bare numbers, in mg/dL.

Some compounds with recorded PL:
{"Compound": "O=NN(CCCl)C(=O)NC1CCCCC1", "Property label": "PL", "Uom": "mg/dL", "Measured": 148.4}
{"Compound": "CC1=C(CC(=O)O)c2cc(F)ccc2/C1=C\\c1ccc([S+](C)[O-])cc1 (stereo unspecified)", "Property label": "PL", "Uom": "mg/dL", "Measured": 128.8}

For each entry beneath this line, provide reported PL.
1. ClC(Cl)(Cl)Cl [CARBON TETRACHLORIDE]
2. CCCCc1oc2ccccc2c1C(=O)c1cc(I)c(OCCN(CC)CC)c(I)c1
3. CN(C)C(=N)N=C(N)N
4. CC[C@H]1[C@@H]2C[C@H]3[C@@H]4N(C)c5ccccc5[C@]45C[C@@H]([C@@H]2[C@H]5O)N3[C@@H]1O

1. 143.8
2. 151
3. 143.4
4. 139

###

organism: Rattus norvegicus; experiment: Open TG-GATES - Regimen: Single; assay type: toxicity, organism-based, Sprague-Dawley; design: regimen Single, gender Male, age 6 weeks; settings: in vivo, po, 0 mg/kg, 9 h, tissue Plasma, route gavage, dose level Control
Label key: Yes means ALP under 1000 IU/L; No means ALP of 1000 IU/L or more.

{"Compound": "CCc1oc2ccccc2c1C(=O)c1cc(Br)c(O)c(Br)c1 [BENZBROMARONE]", "Category": "Yes"}
{"Compound": "CCC1(c2ccccc2)C(=O)NC(=O)NC1=O [PHENOBARBITAL]", "Category": "Yes"}
{"Compound": "ClC(Cl)(Cl)Cl [CARBON TETRACHLORIDE]", "Category": "Yes"}
{"Compound": "CN(C)CCC=C1c2ccccc2COc2ccccc21 [DOXEPIN]", "Category": "No"}
{"Compound": "CC[C@H]1[C@@H]2C[C@H]3[C@@H]4N(C)c5ccccc5[C@]45C[C@@H]([C@@H]2[C@H]5O)N3[C@@H]1O [AJMALINE]", "Category": "Yes"}

Consider the compound CC(C)N(CCC(C(N)=O)(c1ccccc1)c1ccccn1)C(C)C (stereo not given) [DISOPYRAMIDE] . Is its ALP strictly less than 1000 IU/L?
No

Consider the compound CC1=C(CC(=O)O)c2cc(F)ccc2/C1=C\c1ccc([S+](C)[O-])cc1 (stereo not given) . Is its ALP strictly less than 1000 IU/L?
No

Consider the compound OCCOCCN1CCN(C(c2ccccc2)c2ccc(Cl)cc2)CC1 (stereo not given) [HYDROXYZINE] . Is its ALP strictly less than 1000 IU/L?
No

Consider the compound CN(C)C(=N)N=C(N)N [METFORMIN] . Is its ALP strictly less than 1000 IU/L?
No
